Target: T1, TRBP-ΔC-RBD2-Null (UniProt Q15633-2 9-215, K150A;K189A;K190A)
T1 sequence: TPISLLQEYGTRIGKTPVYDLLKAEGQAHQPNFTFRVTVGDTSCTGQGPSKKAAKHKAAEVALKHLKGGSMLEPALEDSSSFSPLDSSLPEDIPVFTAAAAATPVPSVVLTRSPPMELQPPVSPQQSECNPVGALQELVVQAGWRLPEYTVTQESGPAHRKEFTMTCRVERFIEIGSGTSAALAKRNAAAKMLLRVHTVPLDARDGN
Experiment: EMSA; apparent Kd; nH 3.4; 50 mM sodium cacodylate pH 7.0, 50 mM potassium glutamate, 5% glycerol; EMSA 0.5 pM RNA, 30 min at room temperature, gel 0.25X TBE at 10 C; CD at 10 C with 5-15 uM RNA
Details: protein: recombinant; label: 5'-32P top strand (EMSA); blunt
ENDPOINT NAME: pKd
Please note pKd is a logarithmic value: minus log10 of concentration in mol/L. Answer with that number alone.

Task: Supply measured pKd of ds33 (dsRNA) RNA 1: GGUCAGCAGUGCCUUAGCAGCACGUAAAUAUGG RNA 2: CCAUAUUUACGUGCUGCUAAGGCACUGCUGACC in your reply.
Output: 6.36
